System: Digitaria sanguinalis
Experiment: Herbicidal activity against Digitaria sanguinalis (hairy crabgrass) assessed as inhibition of fresh weed plant weight at 187.5 g/ha using pre-emergence treatment protocol
Assay type: functional
Endpoint label: inhibition at 187.5 g/ha (%)
Number only, in %; omit the unit.

# Molecule, Endpoint label, Reported measurement
rows = [
    ("C#CCN1C(=O)COc2cc(F)c(-n3nnc4c(cnn4CC=C)c3=O)cc21", "inhibition at 187.5 g/ha", 77.6),
    ("C#CCN1C(=O)COc2cc(F)c(-n3nnc4c(cnn4CCC)c3=O)cc21", "inhibition at 187.5 g/ha", 80.4),
    ("C=CCN1C(=O)COc2cc(F)c(-n3nnc4nn(CCC)cc4c3=O)cc21", "inhibition at 187.5 g/ha", 4.3),
    ("C#CCN1C(=O)COc2cc(F)c(-n3nnc4nn(CC=C)cc4c3=O)cc21", "inhibition at 187.5 g/ha", 16.3),
    ("C#CCN1C(=O)COc2cc(F)c(N3C(=O)C4=C(CCCC4)C3=O)cc21 [FLUMIOXAZIN]", "inhibition at 187.5 g/ha", 100),
]

[ask] # get_value(readout='inhibition at 187.5 g/ha', item= "C=CCOc1cc(-n2nnc3nn(CC=C)cc3c2=O)c(F)cc1Cl" )
[reply] 0

[ask] Quick one: inhibition at 187.5 g/ha for "C=CCN1C(=O)COc2cc(F)c(-n3nnc4c(cnn4CC=C)c3=O)cc21" ?
[reply] 26.5

[ask] Name the reported inhibition at 187.5 g/ha value associated with the molecule "C#CCOc1cc(-n2nnc3c(cnn3CC=C)c2=O)c(F)cc1Cl"
[reply] 6.5

---

Tested on: Brassica rapa subsp. oleifera
Experiment: Herbicidal activity against Brassica rapa subsp. oleifera assessed as inhibition of fresh weed plant weight at 1500 g/ha using pre-emergence treatment protocol
Type: functional
inhibition at 1500 g/ha reference
Give the value, in units of %, as a plain number.

# Structure notation, Units label, Reported measurement
records = [
    ("C=CCOc1cc(-n2nnc3nn(CC=C)cc3c2=O)c(F)cc1Cl", "%", 50.7),
    ("C#CCOc1cc(-n2nnc3c(c(C)nn3C)c2=O)c(F)cc1Cl", "%", 9.5),
    ("C=CCN1C(=O)COc2cc(F)c(-n3nnc4c(c(C(F)(F)F)nn4C)c3=O)cc21", "%", 0),
    ("Cn1ncc2c(=O)n(-c3cc(O)c(Cl)cc3F)nnc21", "%", 0),
    ("C#CCOc1cc(-n2nnc3c(c(C(F)(F)F)nn3C)c2=O)c(F)cc1Cl", "%", 21.6),
]

[ask] Name the recorded inhibition at 1500 g/ha for "C#CCN1C(=O)COc2cc(F)c(-n3nnc4c(cnn4C)c3=O)cc21" .
[reply] 98.8

[ask] What measured inhibition at 1500 g/ha goes with "CCCCCOc1cc(-n2nnc3c(cnn3C)c2=O)c(F)cc1Cl" ?
[reply] 13.9

[ask] I have this compound here, "C=CCN1C(=O)COc2cc(F)c(-n3nnc4c(c(C)nn4C)c3=O)cc21" , and I need its recorded inhibition at 1500 g/ha.
[reply] 34.6

[ask] inhibition at 1500 g/ha lookup needed for "C#CCN1C(=O)COc2cc(F)c(-n3nnc4c(cnn4CCC)c3=O)cc21" , thanks.
[reply] 98.1
